biological target: GOPC, Q9HD26; test: holdup assay; parameters: key: below the threshold = too weak to quantify, mostly under pKd 3.1 to 4; settings: plain residues with an end cap or a label only (N-terminal biotin on a linker: ado-ado)
valueKind: pKd

Name the reported pKd value associated with the binder DDASLPVSDV [PLEKHA1, Q9HB21] 4.25

Consider the binder EDGESWEYQI [TRPV6, Q9H1D0] and give its measured pKd. below the threshold

Quick one: pKd for EDPRVEVTQF [SLC22A9, Q8IVM8] ? below the threshold

Which pKd is reported for this binder? QSGLYESEEL [MYOT, Q9UBF9] below the threshold

Please look up its pKd: DRIQSCLSDA [SBF1, O95248] below the threshold

More entries:
What measured pKd goes with TNSRHGETTV [FZD2, Q14332] ? 3.88

Bench note: what pKd did DFLSTFHIRI [CIB2, O75838] show? below the threshold

Which value of pKd has been reported for PSVGSKKTVL [REELD1, A0A1B0GV85] in the records? 4.26

Suppose we examine the binder PYPTADHMLA [JUP, P14923] ; what pKd value has been reported? below the threshold
